Hi there, I'd appreciate the recorded H1.0 immunofluorescence intensity for every entry that follows.
# Tested on: TDF;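 note: TDF is a line of transformed human dermal fibroblasts of mesenchymal origin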
# assay: H1.0 immunofluorescence intensity relative to DMSO (% of DMSO); higher = stronger H1.0 induction, active = 120 or more
# measurement parameters: concentration: 10 µM; 24 h
Respond with the number and no other words.

**Q:** Quick check: H1.0 immunofluorescence intensity of N#Cc1ccc2c(c1)CCN(CCC1CCC(NC(=O)c3ccnc4ccccc34)CC1)C2 (centres undefined) ?
**A:** 90.6

**Q:** Value lookup for H1.0 immunofluorescence intensity; key = COC(=O)c1c(-c2cc(OC)c(OC)c(OC)c2)c2ccnc(OCc3ncccn3)c2c(=O)n1Cc1ccnc(C)c1.Cl
**A:** 94.3

**Q:** GET /values?readout=H1.0 immunofluorescence intensity&item= CC(C=CC=C(C)C=CC1=C(C)CCCC1(C)C)=CC=CC=C(C)C=CC=C(C)C=CC1=C(C)CCCC1(C)C
**A:** 101

**Q:** Field request: H1.0 immunofluorescence intensity | item: CC1(C)CC=C(c2ccccc2)c2cc(/C=C/c3ccc(C(=O)O)cc3)ccc21
**A:** 101
